- experimental-target: UniProtKB P43115
- Sequence (P43115 whole entry): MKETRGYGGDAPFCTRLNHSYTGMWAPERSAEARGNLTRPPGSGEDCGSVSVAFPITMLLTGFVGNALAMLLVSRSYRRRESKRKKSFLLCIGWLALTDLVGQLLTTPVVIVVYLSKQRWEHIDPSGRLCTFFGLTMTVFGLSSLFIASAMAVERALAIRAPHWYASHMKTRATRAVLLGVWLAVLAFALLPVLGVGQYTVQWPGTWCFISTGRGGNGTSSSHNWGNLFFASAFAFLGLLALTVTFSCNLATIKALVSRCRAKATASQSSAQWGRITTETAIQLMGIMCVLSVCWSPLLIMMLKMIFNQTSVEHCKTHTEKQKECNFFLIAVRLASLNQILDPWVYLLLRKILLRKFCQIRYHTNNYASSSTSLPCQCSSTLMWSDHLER
- method-description: Other receptors activity, hEP3A
- Type: cell-based
reported-metric: EC50

Incoming: If you can, please state the reported EC50 value of O=C(O)c1ccc(CC2Cc3c(cccc3-c3cccc(C(F)(F)F)c3)C2=O)s1 (stereo not shown) .
Outgoing: > 10000 nM

###

- experimental-target: EP4 (Homo sapiens, UniProt P35408)
- Sequence (P35408 whole entry): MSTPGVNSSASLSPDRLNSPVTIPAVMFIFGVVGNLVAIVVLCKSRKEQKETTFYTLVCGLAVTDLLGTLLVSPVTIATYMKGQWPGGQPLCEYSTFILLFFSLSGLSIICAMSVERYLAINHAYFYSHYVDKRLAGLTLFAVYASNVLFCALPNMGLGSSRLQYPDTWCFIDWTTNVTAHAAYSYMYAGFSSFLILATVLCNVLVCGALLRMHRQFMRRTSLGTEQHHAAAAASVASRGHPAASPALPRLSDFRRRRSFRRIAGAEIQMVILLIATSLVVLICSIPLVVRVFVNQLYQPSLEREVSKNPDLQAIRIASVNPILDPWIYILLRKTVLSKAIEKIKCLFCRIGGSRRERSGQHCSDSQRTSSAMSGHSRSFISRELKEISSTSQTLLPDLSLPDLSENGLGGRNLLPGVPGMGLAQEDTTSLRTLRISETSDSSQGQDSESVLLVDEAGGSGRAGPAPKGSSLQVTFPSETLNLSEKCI
- method-description: EP4 binding study
- experimental-parameters: read-out: EP4 data (EC50 in nM) KI
I'd appreciate it if you could supply Ki values for the items below.
Give bare numbers, in nM.

>>> df
                                   molecule  result_number
0  O=C(O)c1cc(CC2Cc3c(cccc3-c3cccc(C(F)(F)F)c3)C2=O)cs1 (centres unmarked)              7

Lab note: each molecule below needs its Ki filled in.
1. O=C(O)c1ccc(CC2Cc3c(cccc3-c3cccc(Cl)c3)C2=O)cc1 (centres unmarked)
2. O=C(O)c1ccc(CC2Cc3c(cccc3-c3ccc4ccccc4c3)C2=O)cc1 (centres unmarked)
3. COc1cc(OC)cc(-c2cccc3c2CC(Cc2ccc(C(=O)O)cc2)C3=O)c1 (centres unmarked)
4. COc1cc(-c2cccc3c2CC(Cc2ccc(C(=O)O)cc2)C3=O)cc(C(F)(F)F)c1 (centres unmarked)
5. O=C(O)c1ccc(CC2Cc3c(cccc3-c3cccc(Cl)c3)C2=O)s1 (centres unmarked)
6. O=C(O)c1ccc(CC2Cc3c(cccc3-c3ccc(Cl)c(C(F)(F)F)c3)C2=O)cc1 (centres unmarked)
7. O=C(O)c1ccc(CC2CCc3c(cccc3-c3cccc(C(F)(F)F)c3)C2=O)s1 (centres unmarked)

Outgoing:
954
1190
486
889
505
1350
1070

###

- experimental-target: UniProt:P43116
- Sequence (P43116 whole entry): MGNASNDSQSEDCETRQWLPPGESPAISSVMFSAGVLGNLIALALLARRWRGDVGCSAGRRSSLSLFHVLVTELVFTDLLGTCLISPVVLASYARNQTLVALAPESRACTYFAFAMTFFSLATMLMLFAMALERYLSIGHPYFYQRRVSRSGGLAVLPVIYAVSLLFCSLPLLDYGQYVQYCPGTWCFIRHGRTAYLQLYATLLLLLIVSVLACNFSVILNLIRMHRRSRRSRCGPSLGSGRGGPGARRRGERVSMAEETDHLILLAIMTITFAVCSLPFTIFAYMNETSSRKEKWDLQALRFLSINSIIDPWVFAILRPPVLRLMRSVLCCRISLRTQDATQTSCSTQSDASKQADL
- method-description: EP2 binding study
- experimental-parameters: read-out: EP2 Data (EC50 in nM) Ki
reported-metric: Ki (nM)
Give bare numbers, in nM.

Lab note: each compound below needs its Ki filled in.
1. O=C(O)c1ccc(CC2Cc3c(cccc3-c3cccc(C(F)(F)F)c3)C2=O)cc1 (stereo not shown) [Example 2]
2. Cc1cccc(-c2cccc3c2CC(Cc2ccc(C(=O)O)cc2)C3=O)c1 (stereo not shown) [Example 12]

Outgoing:
1: 56; 2: 191

Lab note: each compound below needs its Ki filled in.
1. O=C(O)c1ccc(CC2CCc3c(cccc3-c3cccc(C(F)(F)F)c3)C2=O)cc1 (stereo not shown) [Example 1]
2. O=C(O)c1csc(CC2Cc3c(cccc3-c3cccc(C(F)(F)F)c3)C2=O)c1 (stereo not shown) [Example 18]

Outgoing:
1: 70; 2: 96
